# test.method.notes: Plasma pharmacokinetics after single oral doses in the PET studies
# Assay type: in vivo, human
# condition.notes: human, plasma, po, 0.2 mg, AZD7325 single oral dose 0.2 mg; individual subjects; read-out: C max
test.readout: Cmax (nM)

1. CCCNC(=O)c1nnc2c(-c3c(F)cccc3OC)cccc2c1N [AZD7325] : 2.29

---

# test.method.notes: Plasma pharmacokinetics after single oral doses in the PET studies
# Type: in vivo, human
# condition.notes: AZD7325 single oral dose 5 mg; individual subjects; read-out: C max
# Experimental: Venous blood samples for determination of drug plasma concentrations were collected at approximately 15 min before [^11C]flumazenil injection and at 15 and 30 min and 3, 4, 6, 8, 10, 12, 16, 24, 36, and 48 h after drug administration, including three samples during PET measurement, at 1, 1.30, and 2 h after drug administration. […]
test.readout: Cmax (nM)

1) CCCNC(=O)c1nnc2c(-c3c(F)cccc3OC)cccc2c1N : 44
